Please go through the items and note down their melting point.

Suppose we examine the compound Cc1ccc(CNC(=O)c2ncccc2O)cc1 ; what melting point value has been reported?
83 to 84 °C

Suppose we examine the compound Cc1ccnc(C(=O)NC2CC(C)(C)CC(C)(C)C2)c1O ; what melting point value has been reported?
42 to 45 °C

Suppose we examine the compound COCCC(=O)Oc1c(OC)ccnc1C(=O)Nc1ccc(C(=O)c2cccc(C(F)(F)F)c2)cc1 ; what melting point value has been reported?
158 to 160 °C

Suppose we examine the compound O=C(NCc1ccccn1)c1nc(Br)ccc1O ; what melting point value has been reported?
124 to 126 °C

Suppose we examine the compound COCc1cc(Oc2ccc(C(F)(F)F)cc2)ccc1NC(=O)c1nccc(OC)c1O ; what melting point value has been reported?
125 to 127 °C

Suppose we examine the compound O=C(NC(Cc1ccccc1)c1ccccc1)c1cccnc1O (stereo not drawn) ; what melting point value has been reported?
190 to 192 °C

Suppose we examine the compound Br.COc1ccnc(C(=O)NC2C[C@@H](Cc3ccccc3)O[C@@H](C)C2)c1O (stereo partly drawn) ; what melting point value has been reported?
156 to 158 °C

Suppose we examine the compound COc1cccc(CNC(=O)c2cccnc2O)c1OC ; what melting point value has been reported?
193 to 194 °C

Suppose we examine the compound CC(C)C(=O)O[C@H]1[C@H](C)OC(=O)[C@@H](NC(=O)c2cnccc2O)COC(=O)[C@@H]1Cc1ccccc1 ; what melting point value has been reported?
213 to 215 °C (dec.)

Suppose we examine the compound COc1ccnc(C(=O)N[C@H]2COC(=O)[C@H](Oc3ccccc3)[C@@H](OC(=O)C(C)C)[C@H](C)OC2=O)c1O ; what melting point value has been reported?
194 to 195 °C

Suppose we examine the compound COc1ccnc(C(=O)N[C@H]2CC(=O)OCC(NC(=O)OC(C)(C)C)COC2=O)c1O (stereo partly drawn) ; what melting point value has been reported?
118 to 121 °C

Suppose we examine the compound COc1ccc(C(C)NC(=O)c2nc(Br)ccc2O)cc1 (stereo not drawn) ; what melting point value has been reported?
111 to 113 °C

Suppose we examine the compound Cc1nc(O)c(C(=O)NC2CC(C)(C)CC(C)(C)C2)cc1Cl ; what melting point value has been reported?
329 to 331 °C

Suppose we examine the compound COc1ccnc(C(=O)NC2CSCC(c3ccccc3)C2)c1O (stereo not drawn) ; what melting point value has been reported?
141 to 143 °C

Suppose we examine the compound Cc1ccnc(C(=O)N[C@H]2COC(=O)[C@H](Cc3ccccc3)[C@@H](OC(=O)C(C)C)[C@H](C)OC2=O)c1OC(=O)C(C)C ; what melting point value has been reported?
163 to 166 °C

Suppose we examine the compound COc1ccnc(C(=O)NC(C)c2ccc(Cl)cc2)c1O (stereo not drawn) ; what melting point value has been reported?
140 to 142 °C

Suppose we examine the compound O=C(OC1CCC(NC(=O)c2ncccc2O)CC1)c1ccccc1 (stereo not drawn) ; what melting point value has been reported?
154 to 157 °C

Suppose we examine the compound CSc1nnc(C(=O)NC2CC(C)(C)CC(C)(C)C2)c(O)n1 ; what melting point value has been reported?
265 to 268 °C

Suppose we examine the compound COc1ccnc(C(=O)Nc2ccc(Sc3cccc(C(F)(F)F)c3)cc2)c1O ; what melting point value has been reported?
167 to 169 °C

Suppose we examine the compound COc1ccnc(C(=O)Nc2ccc(Oc3ccnc(C(F)(F)F)c3)cc2)c1O ; what melting point value has been reported?
160 to 162 °C

Suppose we examine the compound COc1ccnc(C(=O)Nc2ccc(Oc3ccc(C(F)(F)F)cn3)cc2)c1O ; what melting point value has been reported?
141 to 143 °C

Suppose we examine the compound CC(=O)Oc1cccnc1C(=O)NC1CCC(OC(C)=O)CC1 (stereo not drawn) ; what melting point value has been reported?
158 to 161 °C

Suppose we examine the compound O=C(Nc1ccc(Oc2cccc(C(F)(F)F)c2)cc1)c1nccnc1O ; what melting point value has been reported?
239 to 243 °C (dec.)

Suppose we examine the compound O=C(NCc1ccc(Cl)c(Cl)c1)c1cccnc1O ; what melting point value has been reported?
229 to 230 °C

Suppose we examine the compound COCCC(=O)Oc1c(OC)ccnc1C(=O)Nc1cccc(C(=O)Nc2ccc(C(F)(F)F)cc2)c1 ; what melting point value has been reported?
187 to 189 °C

Suppose we examine the compound O=C(NC1CCC(O)CC1)c1ncccc1O (stereo not drawn) ; what melting point value has been reported?
112 to 115 °C

Suppose we examine the compound COc1ccccc1CNC(=O)c1ncccc1O ; what melting point value has been reported?
75 to 76 °C

Suppose we examine the compound O=C(Nc1cccc(Oc2ccccc2)c1)c1cccnc1O ; what melting point value has been reported?
200 to 201 °C

Suppose we examine the compound COc1nc(O)c(C(=O)N[C@H]2COC(=O)[C@H](Cc3ccccc3)[C@@H](OC(=O)C(C)C)[C@H](C)OC2=O)nc1Cl ; what melting point value has been reported?
84 to 86 °C

Suppose we examine the compound CC(C)(C)C1CCC(NC(=O)c2cnccc2O)CC1 (stereo not drawn) ; what melting point value has been reported?
70 to 78 °C

Suppose we examine the compound CC1(C)CC(NC(=O)c2nc3ccccc3nc2O)CC(C)(C)C1 ; what melting point value has been reported?
> 300 °C

Suppose we examine the compound COc1ccc(CNC(=O)c2ncccc2O)cc1 ; what melting point value has been reported?
96 to 97 °C

Suppose we examine the compound CC1(C)CC(NC(=O)c2nnc(O)nc2O)CC(C)(C)C1 ; what melting point value has been reported?
283 to 285 °C

Suppose we examine the compound COc1ccnc(C(=O)Nc2ccc(Oc3cc(Cl)nc(C(F)(F)F)c3)cc2)c1O ; what melting point value has been reported?
198 to 201 °C

Suppose we examine the compound CC(NC(=O)c1ncccc1O)c1ccccc1 (stereo not drawn) ; what melting point value has been reported?
89 to 91 °C

Suppose we examine the compound O=C(Nc1ccc(Oc2ccc(C(F)(F)F)cc2)cc1)c1ncccc1O ; what melting point value has been reported?
131 to 133 °C

====

Please go through the items and note down their pest or weed control at 100 ppm.
System: Erysiphe graminis—ERYSGT
Assay: Powdery Mildew of Wheat, in vivo whole plant, 24 Hour Protectant
Conditions: Erysiphe; wheat plants sprayed at 100 ppm, inoculated after 24 hours; control of fungal infection vs untreated plants; read-out: ERYSGT in vivo 1 Day Protectant

Suppose we examine the compound COc1ccnc(C(=O)Nc2ccc(Oc3ccc(C(F)(F)F)cc3)nc2)c1O ; what pest or weed control at 100 ppm value has been reported?
< 25%

Suppose we examine the compound O=C(Nc1ccc(Oc2ccccc2C(F)(F)F)cc1)c1nc(Br)ccc1O ; what pest or weed control at 100 ppm value has been reported?
< 25%

Suppose we examine the compound O=C(Nc1ccc(Oc2ccc(C(F)(F)F)cc2)cc1)c1nc(Br)ccc1O ; what pest or weed control at 100 ppm value has been reported?
< 25%

Suppose we examine the compound O=C(Nc1ccccc1Oc1ccccc1)c1cccnc1O ; what pest or weed control at 100 ppm value has been reported?
< 25%

Suppose we examine the compound CC1(C)CC(NC(=O)c2nsnc2O)CC(C)(C)C1 ; what pest or weed control at 100 ppm value has been reported?
25 to 74%

Suppose we examine the compound O=C(Nc1ccc(Oc2cccc(C(F)(F)F)c2)cc1)c1nc(Br)ccc1O ; what pest or weed control at 100 ppm value has been reported?
< 25%

Suppose we examine the compound CC(C)C(=O)O[C@H]1[C@H](C)OC(=O)[C@@H](NC(=O)c2ccncc2O)COC(=O)[C@@H]1Cc1ccccc1 ; what pest or weed control at 100 ppm value has been reported?
< 25%

Suppose we examine the compound O=C(NC(Cc1ccccc1)c1ccccc1)c1cccnc1O (stereo not shown) ; what pest or weed control at 100 ppm value has been reported?
< 25%

Suppose we examine the compound O=C(Nc1ccccc1Oc1cccc(C(F)(F)F)c1)c1nc(Br)ccc1O ; what pest or weed control at 100 ppm value has been reported?
< 25%

Suppose we examine the compound Cc1ccnc(C(=O)N[C@H]2COC(=O)[C@H](Cc3ccccc3)[C@@H](OC(=O)C(C)C)[C@H](C)OC2=O)c1OC(=O)C(C)C ; what pest or weed control at 100 ppm value has been reported?
< 25%

Suppose we examine the compound CC(C)C(=O)O[C@H]1[C@H](C)OC(=O)[C@@H](NC(=O)c2cncnc2O)COC(=O)[C@@H]1Cc1ccccc1 ; what pest or weed control at 100 ppm value has been reported?
< 25%

Suppose we examine the compound CCCCCc1ccc(C(C)NC(=O)c2nc(Br)ccc2O)cc1 (stereo not shown) ; what pest or weed control at 100 ppm value has been reported?
< 25%

Suppose we examine the compound CC(C)C(=O)O[C@H]1[C@H](C)OC(=O)[C@@H](NC(=O)c2nnccc2O)COC(=O)[C@@H]1Cc1ccccc1 ; what pest or weed control at 100 ppm value has been reported?
25 to 74%

Suppose we examine the compound COC(=O)C(COC(=O)C(C)c1ccccc1)NC(=O)c1nccc(OC)c1OC(C)=O (stereo not shown) ; what pest or weed control at 100 ppm value has been reported?
< 25%

Suppose we examine the compound O=C(NCc1ccc(Cl)c(Cl)c1)c1cccnc1O ; what pest or weed control at 100 ppm value has been reported?
< 25%

Suppose we examine the compound CC(C)C(=O)O[C@H]1[C@H](C)OC(=O)[C@@H](NC(=O)c2cn(C)nc2O)COC(=O)[C@@H]1Cc1ccccc1 ; what pest or weed control at 100 ppm value has been reported?
< 25%
